Recorded measurements of pEC50, one per entry
# System: IL-6 (THP-1 cells)
# assay_summary: IL-6 inhibition in LPS-stimulated THP-1 human monocyte cells (HTRF)
# Format: cell-based
# condition_summary: LPS 500 ng/mL, 22 hours, IL6 HTRF
Scale for pEC50: -log10 of concentration given in mol/L; no unit attached.

Sample records with pEC50:
[
  {
    "compound": "c1cc(-c2ccncc2)c2cc(-c3n[nH]c4ccc(-c5cncc(CNCC6CCCC6)c5)nc34)[nH]c2c1 [Compound 137]",
    "pEC50": 5.49
  },
  {
    "compound": "CN1CCN(c2cccc3[nH]c(-c4n[nH]c5ccc(-c6cncc(NC(=O)c7ccccc7)c6)nc45)cc23)CC1 [Compound 235]",
    "pEC50": 6.13
  }
]

Here's the next entry for you.
IN: Need pEC50, item CN(C)CCNc1cc(F)cc(-c2cccc3[nH]c(-c4n[nH]c5ccc(-c6cncc(NC(=O)Cc7ccccc7)c6)nc45)cc23)c1 [Compound 458]
OUT: 5.84

---

List of pEC50 values.
# Tested on: IL-6 (THP-1 cells)
# assay_summary: IL-6 inhibition in LPS-stimulated THP-1 human monocyte cells (HTRF)
# Format: cell-based
# condition_summary: LPS 500 ng/mL, 22 hours, IL6 HTRF
FYI, pEC50 means -log10 of a concentration in mol per litre.

[
  {
    "record_smiles": "Oc1cncc(-c2ccc3[nH]nc(-c4cc5ncccc5[nH]4)c3n2)c1",
    "obs_value": 7.04
  },
  {
    "record_smiles": "CN(C)c1cncc(-c2ccc3[nH]nc(-c4cc5c(-c6ccoc6)cccc5[nH]4)c3n2)c1",
    "obs_value": 5.86
  },
  {
    "record_smiles": "Cn1cc(-c2ccc3[nH]nc(-c4cc5c(-c6cccc(F)c6)cccc5[nH]4)c3n2)cn1",
    "obs_value": 7.64
  },
  {
    "record_smiles": "CN(C)CCNc1cc(F)cc(-c2cccc3[nH]c(-c4n[nH]c5ccc(-c6cccnc6)nc45)cc23)c1",
    "obs_value": 7.17
  },
  {
    "record_smiles": "CS(=O)(=O)NCc1cc(F)cc(-c2cccc3[nH]c(-c4n[nH]c5ccc(-c6cncc(NC(=O)C7CCCC7)c6)nc45)cc23)c1",
    "obs_value": 6.97
  }
]

IN: // lookup pEC50 | system=IL-6 (THP-1 cells) | key= CCCCC(=O)Nc1cncc(-c2ccc3[nH]nc(-c4cc5c(N6CCCCC6)cccc5[nH]4)c3n2)c1
OUT: 7.07

IN: Which measured pEC50 belongs to CN1CCN(c2cccc3[nH]c(-c4n[nH]c5ccc(-c6cncc(NC(=O)CC(C)(C)C)c6)nc45)cc23)CC1 , tested on IL-6 (THP-1 cells)?
OUT: 6.61

IN: pEC50 of O=C(Nc1cncc(-c2ccc3[nH]nc(-c4cc5c(-c6cccc(F)c6)cccc5[nH]4)c3n2)c1)C1CCCCC1 on IL-6 (THP-1 cells)?
OUT: 6.00

---

In this section, each of the compounds is paired with its reported pEC50.
# System: Wnt activity (Sp5-Luc reporter, SW480 colon carcinoma cells)
# assay_summary: Wnt activity screening assay: Sp5-Luc reporter gene in SW480 colon carcinoma cells
# Type: cell-based
# condition_summary: Homo sapiens, overnight incubation, 10-point curve from 10 μM
Scale: negative log10 of molar concentration, which is what pEC50 denotes.

IN: Requested read-out: pEC50. Entry: CN(C)c1cncc(-c2ccc3[nH]nc(-c4cc5c(-c6ccoc6)cccc5[nH]4)c3n2)c1
OUT: 6.22

IN: If you can, please state the reported pEC50 value of CN(C)Cc1cncc(-c2ccc3[nH]nc(-c4cc5c(-c6cccs6)cccc5[nH]4)c3n2)c1 .
OUT: 5.08

IN: Which pEC50 is reported for this compound? c1cc(-c2ccncc2)c2cc(-c3n[nH]c4ccc(-c5cncc(CN6CCCCC6)c5)nc34)[nH]c2c1
OUT: 5.29

---

Catalogue of molecules with associated pEC50
# Test system: IL-6 (THP-1 cells)
# assay_summary: IL-6 inhibition in LPS-stimulated THP-1 human monocyte cells (HTRF)
# Type: cell-based
# condition_summary: LPS 500 ng/mL, 22 hours, IL6 HTRF
Recall that pEC50 is obtained by taking minus log10 of the concentration measured in molar.

[
  {
    "record_smiles": "c1cncc(-c2ccc3[nH]nc(-c4cc5ccccc5[nH]4)c3n2)c1",
    "metric": "pEC50",
    "obs_value": 7.89
  },
  {
    "record_smiles": "FC1(F)CCN(Cc2cncc(-c3ccc4[nH]nc(-c5cc6ccccc6[nH]5)c4n3)c2)C1",
    "metric": "pEC50",
    "obs_value": 6.68
  },
  {
    "record_smiles": "CN(C)Cc1cncc(-c2ccc3[nH]nc(-c4cc5c(-c6ccc(F)cc6)cccc5[nH]4)c3n2)c1",
    "metric": "pEC50",
    "obs_value": 6.26
  }
]

IN: Provide value of pEC50 for this record tested with IL-6 (THP-1 cells): CCCCC(=O)Nc1cncc(-c2ccc3[nH]nc(-c4cc5ncccc5[nH]4)c3n2)c1
OUT: 7.70

IN: Short answer please: pEC50, IL-6 (THP-1 cells), entry CS(=O)(=O)NCc1cc(F)cc(-c2cccc3[nH]c(-c4n[nH]c5ccc(-c6cncc(OCc7ccccc7)c6)nc45)cc23)c1
OUT: 6.33

IN: Request body: readout pEC50, system IL-6 (THP-1 cells), query Nc1cncc(-c2ccc3[nH]nc(-c4cc5c(-c6ccncc6)cccc5[nH]4)c3n2)c1 . Return the value.
OUT: 7.28

IN: Reported pEC50 for IL-6 (THP-1 cells), given Cc1ccncc1-c1ccc2[nH]nc(-c3cc4c(N5CCN(C)CC5)cccc4[nH]3)c2n1 ?
OUT: 5.89

IN: Write down the reported pEC50 of FC1(F)CCN(Cc2cncc(-c3ccc4[nH]nc(-c5cc6c(-c7cccs7)cccc6[nH]5)c4n3)c2)C1 , test system: IL-6 (THP-1 cells).
OUT: 5.20

IN: Please provide the recorded pEC50 for CS(=O)(=O)NCc1cc(F)cc(-c2cccc3[nH]c(-c4n[nH]c5ccc(C6CCNCC6)nc45)cc23)c1 , tested on IL-6 (THP-1 cells).
OUT: 5.65

IN: What value of pEC50 on IL-6 (THP-1 cells) does c1cc(-c2ccncc2)c2cc(-c3n[nH]c4ccc(-c5cncc(CN6CCCCC6)c5)nc34)[nH]c2c1 have?
OUT: 6.32

---

# Test system: primary human fibroblasts derived from IPF patients (LL29 cells) treated with TGF-β1
# assay_summary: Inhibition of the fibrotic process: αSMA staining in TGF-β1 treated primary human fibroblasts from IPF patients (LL29 cells)
# Type: cell-based
# condition_summary: Fibroblast, 96 h, TGF-β1 20 ng/mL, 4 days, % αSMA positive cells
pEC50: −log10 of the molar value.
Please use True whenever pEC50 is not below 6, and False whenever it is.

Reference set (3 entries):
[
  {
    "record_smiles": "CC(C)(C)CC(=O)Nc1cncc(-c2ccc3[nH]nc(-c4cc5c(-c6cc(F)cc(CNS(C)(=O)=O)c6)cccc5[nH]4)c3n2)c1",
    "answer_label": "True"
  },
  {
    "record_smiles": "c1ccc(-c2cccc3[nH]c(-c4n[nH]c5ccc(-c6cncnc6)nc45)cc23)nc1",
    "answer_label": "True"
  },
  {
    "record_smiles": "c1ccc(-c2ccc3[nH]nc(-c4cc5c(N6CCCCC6)cccc5[nH]4)c3n2)nc1",
    "answer_label": "False"
  }
]

IN: # check: pEC50 of CN(C)CCNc1cc(F)cc(-c2cccc3[nH]c(-c4n[nH]c5ccc(-c6cncc(NC(=O)Cc7ccccc7)c6)nc45)cc23)c1 is greater than or equal to 6
OUT: False

IN: // inclusive: pEC50 at least 6? input: CCCCC(=O)Nc1cncc(-c2ccc3[nH]nc(-c4cc5c(N6CCCCC6)cccc5[nH]4)c3n2)c1
OUT: False

IN: Is the recorded value of pEC50 equal to or greater than 6 for this compound? c1cc(-c2ccoc2)c2cc(-c3n[nH]c4ccc(-c5cncc(OC6CCCCC6)c5)nc34)[nH]c2c1
OUT: False

IN: Hello, I need to know if CS(=O)(=O)NCc1cc(F)cc(-c2cccc3[nH]c(-c4n[nH]c5ccc(C6CCNCC6)nc45)cc23)c1 has measured pEC50 not below 6. Thanks!
OUT: False

IN: Would you say CN(C)Cc1cncc(-c2ccc3[nH]nc(-c4cc5c(-c6cccnc6)cccc5[nH]4)c3n2)c1 shows pEC50 at minimum 6?
OUT: True

IN: Hello, I need to know if CN(C)CCNc1cc(F)cc(-c2cccc3[nH]c(-c4n[nH]c5ccc(-c6ccccn6)nc45)cc23)c1 has measured pEC50 not below 6. Thanks!
OUT: False
